Reference for the values: PubChem BioAssay AID179

tested on: CEM cells HIV-1 protection, formazan growth assay; assay: NCI AIDS Antiviral Assay;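 active = compounds giving half or more protection of infected cells from virus-caused growth loss, again on retest; inactive = the rest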
Possible outcomes: T for active, F for inactive

compound: CCOC(=O)c1cn(-c2ccc([N+](=O)[O-])cc2)c(=S)n2c1nc1ccccc12
label_class: F
//
compound: OC1(c2ccc(Cl)cc2)c2ccccc2C2=NCc3ccccc3CN21 (configuration not stated)
label_class: F
//
compound: CC(=O)O[C@@H]1CC[C@]2(C)C3CC[C@]4(C)C(C(C)CCc5nc6ccccc6n5C(C)=O)CCC4C3[C@H](OC(C)=O)C[C@@H]2C1 (some centres not stated)
label_class: F
//
compound: COc1cc(SSc2cc(OC)cc([N+](=O)[O-])c2N)c(N)c([N+](=O)[O-])c1
label_class: T
//
compound: O=[n+]1c2c(n([O-])c3ccc4ccccc4c31)-c1cccc3cccc-2c13
label_class: F
//
compound: O=C(Nc1ccc(F)cc1)N(C1CCCCC1)C1CCCCC1
label_class: F
//
compound: NC(N)=N/N=C(/CC1OC(=O)c2ccccc21)c1ccc2ccccc2c1 (configuration not stated)
label_class: F
//
compound: Cc1nc(C)c(N2CCN(S(=O)(=O)N(Cc3ccccc3)Cc3ccccc3)CC2)c(=O)[nH]1
label_class: F
//
compound: CCOC(=O)C(=[N+]=[N-])C(=O)CSC#N
label_class: F
//
compound: CCn1c(=O)c2c3ccc(OC(C)=O)cc3[nH]c2c2ccc(OC(C)=O)cc21
label_class: F
//
compound: O=c1c2c(sc3ccccc13)NCN(CCc1ccccc1)C2
label_class: F
//
compound: N#Cc1nc(CCc2nc(C#N)c(N)o2)oc1N
label_class: F
//
compound: Cn1c2ccccc2c(=NNc2ccc(S(=O)(=O)N=C(N)N)cc2)c2ccccc21
label_class: F
//
compound: CC(C)(C)OC(=O)CC(NC(=O)OC(C)(C)C)C(=O)Oc1ccc([N+](=O)[O-])cc1 (configuration not stated)
label_class: F
//
compound: CCOC(=O)/C(F)=C/c1ccc(OC)cc1
label_class: F
//
compound: O/N=C1/CCCCC1NO (configuration not stated)
label_class: F
//
compound: COc1cc(/C=C(\C#N)c2ccccn2)cc(Br)c1O
label_class: F
//
compound: Cc1c(Cl)cccc1Nc1ncccc1C(=O)O
label_class: F
//
compound: Oc1c(Cl)cccc1SSc1cccc(Cl)c1O
label_class: F
//
compound: CC1=Nc2sc3c(c2C2=NCCN12)CCCC3
label_class: F
//
compound: Cc1cccnc1/N=C/c1c(O)n(C)c(=O)[nH]c1=O
label_class: F
//
compound: CC1(C)CC(=O)C(/C=N/c2nc(-c3cccc([N+](=O)[O-])c3)cs2)=C(O)C1
label_class: F

* * *

test system: CEM cells HIV-1 protection, formazan growth assay; assay: NCI AIDS Antiviral Assay
Each record here notes measured EC50.

compound: CC(C)(Br)C(=O)N1CCN(C(c2ccccc2)c2ccccc2)CC1
EC50: > 25.1 µM

compound: C[C@@]12C(=O)OC(=O)[C@]1(C)[C@H]1CC[C@@H]2O1
EC50: > 347 µM

compound: O=C1/C(=C/c2cccc(Br)c2)CCc2ccccc21
EC50: > 200 µM

compound: S=C1Cc2c([nH]c3ccccc23)-c2ccccc2N1
EC50: > 200 µM

compound: O=C(c1ccccc1)N1CCN(C(=S)N(C(=O)c2ccccc2)c2ccccc2)C1=S
EC50: > 200 µM

compound: CN1C(C)(C)CC(=O)C(Br)C1(C)C (stereo unspecified)
EC50: > 200 µM

* * *

System: CEM cells HIV-1 protection, formazan growth assay
Experiment: NCI AIDS Antiviral Assay
Protocol: The ability of compounds to protect human CEM cells from HIV-1 infection is measured as a screen for new compounds capable of inhibiting the HIV virus. Five concentrations of drug were tested on uninfected and infected cells and cell growth was measured using a soluble formazan assay. […] Compounds that provided at least 50% protection were retested. Compounds that provided at least 50% protection on retest were listed as moderately active. […]
pEC50: −log10 of the molar value.
Overview of recorded pEC50 for various compounds
quantity_measured: pEC50

compound: O=C(O)CCC(=O)Nc1ccc2c(c1)S(=O)(=O)N(CC(=O)O)C2=O
quantity_measured: pEC50
observed_result: < 3.70
//
compound: CO[C@@H]1C[C@H]2[C@@H]3CC[C@H]([C@H](C)COC(C)=O)[C@@]3(C)CC[C@@H]2[C@@]2(C)CC[C@H]3C[C@]312
quantity_measured: pEC50
observed_result: < 4.00
//
compound: NNC(=O)CC(=O)Nc1ccccc1Cl
quantity_measured: pEC50
observed_result: < 3.70
//
compound: COc1ccc(OC)c2c(OC)cc(C)cc12
quantity_measured: pEC50
observed_result: < 3.70
//
compound: Cc1ccc(S(=O)(=O)NC(=O)NCCCSSCCCNC(=O)NS(=O)(=O)c2ccc(C)cc2)cc1
quantity_measured: pEC50
observed_result: < 3.70
//
compound: N=C1C=CC2C(=Nc3ccccc3[N+]2=O)N1Cc1ccncc1 (configuration not stated)
quantity_measured: pEC50
observed_result: < 4.65
//
compound: Cn1cc2ccccc2c1-c1nc(F)nc(OCC(=O)[C@H]2CCC3[C@@H]4CCC5=CC(=O)CC[C@]5(C)C4[C@@H](O)C[C@@]32C)n1 (some centres not stated)
quantity_measured: pEC50
observed_result: < 5.04
//
compound: O=c1c2cnccc2cc2c3ccccc3ccn12
quantity_measured: pEC50
observed_result: < 3.70
//
compound: Cc1nc2ccccn2c1N=Nc1ccc(C(=O)NN)cc1
quantity_measured: pEC50
observed_result: < 4.47
//
compound: COC(=O)c1ccc(CO/N=C(\c2ccccc2)c2ccncc2)cc1
quantity_measured: pEC50
observed_result: < 3.70
//
compound: C=CCNC1=C(C(=O)OCC)C(=O)CO1
quantity_measured: pEC50
observed_result: < 2.93
//
compound: NC(N)=NS(=O)(=O)c1ccc(Nc2c3ccccc3nc3c(C(=O)Nc4ccc(S(N)(=O)=O)cc4)cccc23)cc1
quantity_measured: pEC50
observed_result: 5.08
//
compound: N#CCC(=O)N1CCCCCCC1
quantity_measured: pEC50
observed_result: < 2.86
//
compound: CCCCCCCCCCNCCSSc1ccccc1
quantity_measured: pEC50
observed_result: < 3.70
//
compound: Cc1cc(C)c(-c2c(O)c(O)c(-c3ccccc3)c3ccccc23)c(C)c1
quantity_measured: pEC50
observed_result: < 3.70
//
compound: CCOC(=O)c1cc(Br)c(-c2cc(C)no2)[nH]1
quantity_measured: pEC50
observed_result: < 3.70
//
compound: CCN(CC)CCOC(=O)C(c1ccccc1)c1ccccc1
quantity_measured: pEC50
observed_result: < 3.70
//
compound: Cc1nc2[nH]c(=S)[nH]c(=O)c2[nH]c1=O
quantity_measured: pEC50
observed_result: < 3.70
//
compound: CCCCCCCCCC=C(c1cc(Cl)c(OC)c(C(=O)OC)c1)c1cc(Cl)c(OC)c(C(=O)OC)c1
quantity_measured: pEC50
observed_result: < 4.63
//
compound: COc1ccc2c(c1)CCC1C=NOC21 (configuration not stated)
quantity_measured: pEC50
observed_result: < 3.61
//
compound: Cc1cc(NS(=O)(=O)c2ccc(NC(=O)c3ccc4[nH]c5ccccc5c(=O)c4c3)cc2)no1
quantity_measured: pEC50
observed_result: < 3.70
//
compound: Nc1nc2ccc(Sc3ccc4nc(N)[nH]c(=O)c4c3)cc2c(=O)[nH]1
quantity_measured: pEC50
observed_result: < 4.00

* * *

system: CEM cells HIV-1 protection, formazan growth assay; assay: NCI AIDS Antiviral Assay;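 active means compounds giving half or more protection of infected cells from virus-caused growth loss, again on retest; inactive means the rest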
Labels: Yes = active, No = inactive

molecule: COC(=O)[C@]1(C)CCC[C@]2(C)c3cc(Br)c(C(C)C)cc3CC[C@H]12
label_class: No
--
molecule: COC(=O)c1ccccc1NC(=O)C(=O)CC(=O)c1ccccc1NC1=CC(=O)C(=O)c2ccccc21
label_class: No
--
molecule: O=C1CCC2(c3ccc(Cl)cc3)Nc3ncccc3N12 (configuration not stated)
label_class: No
--
molecule: CCOC(=O)c1c(NC(=O)c2cccs2)sc2c1CCCC2
label_class: No
--
molecule: c1ccc2c(c1)[nH]c1c[n+]3c(c[n+]12)[nH]c1ccccc13
label_class: No
--
molecule: O=C(c1ccccc1)C(c1ccccc1)C1(O)C(=O)Nc2c(Cl)ccc(Cl)c21 (configuration not stated)
label_class: No
--
molecule: C/C=C/C(C1=C(O)c2ccccc2C(=O)C1=O)C1=C(O)c2ccccc2C(=O)C1=O
label_class: No
--
molecule: CCOC(=O)N1CCN(c2c(N)nc(C)[nH]c2=O)CC1
label_class: No
--
molecule: CC(=O)NC1CCC(NC(=O)OC(C)(C)C)C(NC(=O)OC(C)(C)C)C1 (configuration not stated)
label_class: No
--
molecule: CC(=O)c1cc2ccccc2oc1=O
label_class: No
--
molecule: CCOC(C[C@H](O)[C@H]1COC(=S)S1)OCC
label_class: Yes
--
molecule: O=c1[nH]c(N/N=C\C(O)C(O)C(O)C(O)CO)nc2ccccc12 (configuration not stated)
label_class: No
--
molecule: CCNc1cc2oc(=O)cc(C(F)(F)F)c2cc1C
label_class: No
--
molecule: c1ccc2c(c1)nc1nc3c(cn12)CCCC3
label_class: No
--
molecule: COC(=O)C1=C(C)C(=O)[C@H]2C(C(=O)OC)CCCC[C@@H]12 (some centres not stated)
label_class: No
--
molecule: COC1/C=C/OC2(C)Oc3c(C)c(OC(C)=O)c4c(c3C2=O)C(=O)C=C(NC(=O)/C(C)=C\C=C\C(C)C(O)C(C)C(O)C(C)C(OC(C)=O)C1C)C4=O (configuration not stated)
label_class: No
--
molecule: CCOC(OCC)[C@H](N)[C@@H](O)[C@@H](O)[C@H]1COC(C)(C)O1
label_class: No
--
molecule: O=C1NC(=O)C(c2ccccc2)O1 (configuration not stated)
label_class: No
--
molecule: CC(C)(C)N/N=C(\C(=O)NC1=C(Cl)C(=O)c2ccccc2C1=O)C1C=CCS1(=O)=O (configuration not stated)
label_class: No
--
molecule: CCCCN(CCCC)C1CCC(Nc2ccnc3cc(Cl)ccc23)CC1 (configuration not stated)
label_class: No
